Measured values drawn from ChEMBL document CHEMBL2380247 for this set.

test system: NCI-H23; test: Antiproliferative activity against human NCI-H23 cells at 0.3 uM by SRB assay; assay type: functional
For each entry below, report its growth, % of control at 0.3 µM value.
Answer with a number only, understood to be in %.

Prompt: Give the measured growth, % of control at 0.3 µM for `CCCCCCCCCCCCCCCCCC(=O)NCC(C)(C)C[N+](C)(C)C`
Completion: 95.3

Prompt: Give the measured growth, % of control at 0.3 µM for `CCCCCCCCCCCCCCCC(=O)N(C)CC[N+](CC)(CC)CC`
Completion: 84.9

Prompt: Give the measured growth, % of control at 0.3 µM for `CCCCCCCCCCCCCCCCCC(=O)NCCC[N+](C)(C)C`
Completion: 103

Prompt: Give the measured growth, % of control at 0.3 µM for `CCCCCCCCCCCCCCCCCC(=O)N(C)CC[N+](C)(C)C`
Completion: 90.2

Prompt: Give the measured growth, % of control at 0.3 µM for `CCCCCCCCCCCCCC(=O)NCC(C)(C)C[N+](C)(C)C`
Completion: 109

Prompt: Give the measured growth, % of control at 0.3 µM for `CCCCCCCCCCCCCCCC(=O)N(C)CCC[N+](C)(C)CC`
Completion: 100

Prompt: Give the measured growth, % of control at 0.3 µM for `CCCCCCCCCCCCCC(=O)NCCC[N+](C)(C)C`
Completion: 96.4

Prompt: Give the measured growth, % of control at 0.3 µM for `CCCCCCCCCCCCCC(=O)N(C)CCC[N+](C)(C)Cc1ccccc1`
Completion: 80

Prompt: Give the measured growth, % of control at 0.3 µM for `CCCCCCCCCCCCCCCC(=O)N(C)CC[N+](C)(C)C`
Completion: 102

Prompt: Give the measured growth, % of control at 0.3 µM for `C=CC[N+](CC)(CC)CCN(C)C(=O)CCCCCCCCCCCCCCC`
Completion: 54.8

Prompt: Give the measured growth, % of control at 0.3 µM for `CCCCCCCCCCCCCC(=O)N(C)CCC[N+](C)(C)C`
Completion: 99.1

====

system: NUGC-3; assay: Antiproliferative activity against human NUGC3 cells at 0.3 uM by SRB assay; assay type: functional
growth, % of control at 0.3 µM strictly under 50% means t; at 50% or over means f.

Prompt: Given the entry `C=CC[N+](CC)(CC)CCN(C)C(=O)CCCCCCCCCCCCC` , would its reported growth, % of control at 0.3 µM be below 50%?
Completion: t

Prompt: Given the entry `CCCCCCCCCCCCCCCC(=O)N(C)CC[N+](C)(C)CC` , would its reported growth, % of control at 0.3 µM be below 50%?
Completion: f

Prompt: Given the entry `C=CC[N+](C)(C)CCCN(C)C(=O)CCCCCCCCCCCCCCC` , would its reported growth, % of control at 0.3 µM be below 50%?
Completion: f

Prompt: Given the entry `C=CC[N+](CC)(CC)CCN(C)C(=O)CCCCCCCCCCCCCCC` , would its reported growth, % of control at 0.3 µM be below 50%?
Completion: f

====

For each entry below, report its growth, % of control at 0.3 µM value.
test system: HCT-15; experiment: Antiproliferative activity against human HCT15 cells at 0.3 uM by SRB assay; assay type: functional
Answer with a number only, understood to be in %.

Prompt: Give the measured growth, % of control at 0.3 µM for `CCCCCCCCCCCCCCCC(=O)N(C)CCC[N+](C)(C)C`
Completion: 99.1

Prompt: Give the measured growth, % of control at 0.3 µM for `CCCCCCCCCCCCCC(=O)N(C)CC[N+](C)(C)C`
Completion: 90.4

Prompt: Give the measured growth, % of control at 0.3 µM for `C=CC[N+](C)(C)CCCN(C)C(=O)CCCCCCCCCCCCC`
Completion: 82.4

Prompt: Give the measured growth, % of control at 0.3 µM for `CCCCCCCCCCCCCCCCCC(=O)N(C)CC[N+](C)(C)C`
Completion: 98.6
